- Test system: MOLT-4
- measurement.description: NCI tumour cell line growth inhibition, 48 h
The source made the active and inactive calls. Rule as the data show it: active = GI50 up to about 1.1 µM and inactive = higher.
One label from this list, please: t = active, f = inactive

# count of solved cases: 2
**Q:** Returns: the outcome recorded for "CCOC(=O)C(=O)Nc1c(C(C)C)cccc1C(C)C" in this assay.
**A:** f

**Q:** Returns: the outcome recorded for C[C@]12CCc3nonc3C1CC[C@@H]1C2CC[C@@]2(C)C1CC[C@@H]2O (stereo not given in full) in this assay.
**A:** f

Now turn to the next compound.
**Q:** Returns: the outcome recorded for CC(NNC(=O)c1cc[n+]([BH2-]C#N)cc1)c1ccc(Cl)c(Cl)c1 (stereo not given) in this assay.
**A:** f
